tested on: U2OS; assay: Multiplex assay against U2OS; type: toxicity, cell-based; details: human, 48 h, 1 µM, compound concentration 1 uM, replicate 2
Population Hoechst High Intensity Objects (%) values, listed per item
quantityMeasured: Population Hoechst High Intensity Objects (%)

molecule: C=CC(=O)Nc1cc(-n2c(=O)ccc3cnc4ccc(-c5ccc(NS(C)(=O)=O)cc5)cc4c32)ccc1C
obsValue: 3
--
molecule: CCCCN(CC)c1nc(C)nc2c1c(C)cn2-c1c(C)cc(C)cc1C.Cl
obsValue: 1
--
molecule: Cc1c(P(=S)(c2ccccc2)c2ccccc2)n2ccccc2[n+]1C/C=C/c1ccccc1.[Br-]
obsValue: 25
--
molecule: CC(C)[C@H](CO)Nc1nc(Nc2cccc(Cl)c2)c2ncn(C(C)C)c2n1 [PURVALANOLA]
obsValue: 5
--
molecule: C[C@@H](Oc1cc(-n2cnc3ccc(CN4CCN(C)CC4)cc32)sc1C(N)=O)c1ccccc1C(F)(F)F [GSK-461364]
obsValue: 5
